# PROCEDURE SUMMARY: yeast display, Sf9 membrane polyspecificity reagent, FACS + sequencing; frameworks hold sequencing errors

[
  {
    "POLYMER SEQUENCE": "QVQLVDSGGGLVQAGGSLRLSCAASGGLFIVNDMGWYIQAPGKEMELVAAITSGGGKNYADSVKGRFTISRDNAKNTVYLQMNSLKPEVTAVYYCARDTYRQIVSNESYGFWGHGTQVTVSS",
    "polyreactivity (PSR sort gate)": "low polyreactivity"
  },
  {
    "POLYMER SEQUENCE": "HVQLVDSGGVLVQAGGSLRLSCAASGSIYDANAMGRYRQAPGKERELVAAISSSGGITYYADSVKGRFTISRDNAKNTVYLQMNSLKPEDTAVYYCVAEYGYIDYSYLFWSDYWGQGTQVTVSS",
    "polyreactivity (PSR sort gate)": "high polyreactivity"
  },
  {
    "POLYMER SEQUENCE": "QVQLVESGGGLVQAGGSLRLSCAASGRTFYRNTMGWYRQAPGKERELVAAITGSGGITYYADSVKGRFTISRDNAKNTVYLKMNSLKPEDTAVYYCAAARYLGQGTQVTVSS",
    "polyreactivity (PSR sort gate)": "high polyreactivity"
  },
  {
    "POLYMER SEQUENCE": "QVQLVESGGGLVQAGGSLRLSCAASGITLYYYAMGWYRQAPGKEREFVAAITWRGTNTYYADSVKGRFTISRDNAKNTVYLQMNSLKPEDTAVYYCAADYEQRVADYYYWGQGTQVTVSS",
    "polyreactivity (PSR sort gate)": "low polyreactivity"
  },
  {
    "POLYMER SEQUENCE": "QVQLVETGGRLVQAGGSLRLSSAASGSIFYPYAMGWYRQAPGKEREWVATITISGGRTYYADSVKGRFTISRDNAKNTVYLQMNSLKPEDTAFYYCATEYAYGAFLYDYWGQGTQVTVSW",
    "polyreactivity (PSR sort gate)": "low polyreactivity"
  },
  {
    "POLYMER SEQUENCE": "QVQLVESGGGLVQAGGSLRLSCAASGSISSQYGMGWYRQAAGKERDLVATIRDGGRTNYADSVKGRFTISRDNGKNTVYLQMNSLKPEDTAVYYCAALYWYYYTWPLYDYWVQGTQVTVSS",
    "polyreactivity (PSR sort gate)": "low polyreactivity"
  },
  {
    "POLYMER SEQUENCE": "QVQHVESGGGLVQAGGSLRLSCAASGYIFKGNVMGWYRQAPGKERELVAAISRSGGRTYYADSVKGRFTISRDNAKNTVYLQLNSLKPDDTAVFYCFTKHRTKPTRPVDYWGQGTQVTVSS",
    "polyreactivity (PSR sort gate)": "high polyreactivity"
  },
  {
    "POLYMER SEQUENCE": "QVQLVESGGGLVQAGGSLRLTCAASGNIFFVYDMGWYRQAPGKERELVAAISWSGGSTYADSVKGRFTISRDNAKNTVYLQMNSVKPEDTAVDYCAADVAYVEYDYWGQGTQVTVSS",
    "polyreactivity (PSR sort gate)": "low polyreactivity"
  },
  {
    "POLYMER SEQUENCE": "QVQLVESGGGLVQAGGSLRLICAATGSTFVYNAMGWYRQAPGKEREFVAVINWSGGRTYADSVKGRFTISRDNAKNTVYLQMNSLKPEDTAVYYCNGERRTYRVALQYRRYDYWGQGTQVTVSS",
    "polyreactivity (PSR sort gate)": "high polyreactivity"
  },
  {
    "POLYMER SEQUENCE": "QVQLVESGGGLVQAGGSLRLSCAASGSIFERYALGWYSQAPGKEREMVAAITWTGGRTYYADSVKGRFTISRDIAKNTVYLQMNSLKPEDTAVYYCARSYTRRGYDYWGLGTQVTVSS",
    "polyreactivity (PSR sort gate)": "high polyreactivity"
  },
  {
    "POLYMER SEQUENCE": "QVQLVESGGGLVQAGGSLRLSCAASGRIFSLYAMGWYRQAPGKERELVAGITWRGGSTYYADSVKGRFTISRDNAKNTVYLQMNSMKPEDTAVYYCAARPWNWRDYDYWGQGTQVTVSS",
    "polyreactivity (PSR sort gate)": "high polyreactivity"
  },
  {
    "POLYMER SEQUENCE": "QVQLVESGGGLVQAGGSLRLSCAASGNIFNTYAMGWYRQAPGKERELVAVISSRCGRTYYADSVKGRFTISRENAKNTVYLQMNSLKPEDTAVYYCAAGKHVTFSYEYRMDYWGVGTQVTVSS",
    "polyreactivity (PSR sort gate)": "low polyreactivity"
  },
  {
    "POLYMER SEQUENCE": "QVQLVESGGGLVQAGGSLRLSCAASGRIFTHNAMGWYRQAPGKERELVAAITSGGRTTYADSVKGRFTISRDNAKNTVYFQMNSLKPEDTAVYYCNADTGLGSLDFDKRDYWGQGTQVTVSS",
    "polyreactivity (PSR sort gate)": "low polyreactivity"
  },
  {
    "POLYMER SEQUENCE": "QVQLVESGGGLVQAGGSLRLSCAASGRTFGVNTMGWYRQAPGKERELVASISTSGGSTYADSVKGRFTISRDNAKNTVYLQMNSLKPEDTAVYYCAKDTDAVYDEYDSWGQGTQVTVSS",
    "polyreactivity (PSR sort gate)": "low polyreactivity"
  },
  {
    "POLYMER SEQUENCE": "QDQLVESGGGLVQAGGSLRLSCAASGFTISSYARGWYRQAPGKERELVAAISTRGGSTYYADSVKGRFTISRDNSKNTVYLQMNSLKPEDTAVSYCATGGRGGRRYEYWGQGTQVTVSS",
    "polyreactivity (PSR sort gate)": "low polyreactivity"
  },
  {
    "POLYMER SEQUENCE": "QVQHVESGGGLVQAGGSLRLSCAASGLIFARNAMVWYRQAPGKERELVAAISSSGNTYADSVKGRFTISRDNAKNTVYLQMNSLKPEDTAVFYCAADYVRWGQRKRSRYYYWGHGTQVTVSS",
    "polyreactivity (PSR sort gate)": "high polyreactivity"
  },
  {
    "POLYMER SEQUENCE": "QVQLVESGGGLVQAGGSLRLSCAASGSTIPSNAMGWYRQAPGKERELVASITYTDGTTRYADSVKGRFTISRDNAKNTVYLQMNSLKPEDTAVYYCNAVYYREGMDYWGQGTQVTVSS",
    "polyreactivity (PSR sort gate)": "low polyreactivity"
  },
  {
    "POLYMER SEQUENCE": "QVQLVESGGGLVQAGGTLRLSCAASGSTFPKYGMGWYRQAPGKEREFVARINWNGGGTYYADSVKGRFTISRDNAKNTVYLHMNSLKPEDTAVYYCNARKRGARFILGYDYWGQGTQVTVSS",
    "polyreactivity (PSR sort gate)": "low polyreactivity"
  },
  {
    "POLYMER SEQUENCE": "QVQLVESGGGLVQAGGSRRLSCAASGSTFSDYAMGWYRQAPGKERELVAAISSSGGRTYYADSVKGRFTISRDNAKNTVYLQMNSLNPEDTAVYYCNARGYARGVSTGYDFWGQGTQVTVSS",
    "polyreactivity (PSR sort gate)": "high polyreactivity"
  },
  {
    "POLYMER SEQUENCE": "QVQLVESGGGLVQAGGSLRLSCAASGFTFISYGMGWYRQAPGKEREFVAAISYSGTGTYYADSVKVRFTISRDNAKNTVYLQMNSLKPEDTAVYYCAVYSRDFRRYDYWGQGTQVTVSS",
    "polyreactivity (PSR sort gate)": "high polyreactivity"
  },
  {
    "POLYMER SEQUENCE": "QVQLVESGGGLVQAGGSLRISCAASGLTFGKYAMGWYRQEPGKERELVAAISWSVTSTYYADSVKGRFTISRDNAKNTVYLQMNSLKPEDTAVYYCAAEIIKLAYRVAYYYWGQGTQVTVSS",
    "polyreactivity (PSR sort gate)": "high polyreactivity"
  }
]

Ref: the nanobody polyreactivity screen of Harvey et al. (2022)
